Target: Kallikrein 7 (Homo sapiens, UniProt P49862)
Sequence (P49862 30-253, species assumed): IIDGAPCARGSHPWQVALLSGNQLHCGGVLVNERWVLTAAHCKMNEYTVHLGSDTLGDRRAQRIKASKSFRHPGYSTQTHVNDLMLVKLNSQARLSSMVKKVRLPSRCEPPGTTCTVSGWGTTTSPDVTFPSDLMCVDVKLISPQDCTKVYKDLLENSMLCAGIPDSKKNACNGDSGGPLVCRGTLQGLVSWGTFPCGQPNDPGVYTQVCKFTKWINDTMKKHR
Assay: Protease panel: Kallikrein 7
Assay type: biochemical
Conditions: supplement panel table, test and control compound
Structures can show the parent of a compound that is named as a salt.
Experimental Readout: IC50 (µM)
Report the figure in µM without appending any unit label.

[in] Query: IC50; subject: CCOC(=O)c1ccc(OC(=O)CCCCCN=C(N)N)cc1 [Gabexate mesylate (GM), Gabexate mesylate]
[out] 29.3

* * *

Test: Intravenous/oral pharmacokinetics and tissue distribution in mice
Format: in vivo
Conditions: female, ICR, mouse, iv, 10 mg/kg i.v., plasma, read-out: C0 (maximum concentration)
Experimental Readout: C0 (ng/mL)
Report the figure in ng/mL without appending any unit label.

[in] Query: C0; subject: O=C(N[C@@H](Cc1ccccn1)C(=O)N[C@@H](CCc1ccccc1)B(O)O)c1cnccn1
[out] 14200

* * *

Experiment: Intravenous/oral pharmacokinetics and tissue distribution in mice
Type: in vivo
Conditions: female, ICR, mouse, po, 100 mg/kg p.o., lung, read-out: Tmax, Lung
Experimental Readout: Tmax (min)
Report the figure in min without appending any unit label.

[in] Query: Tmax; subject: O=C(N[C@@H](Cc1ccccn1)C(=O)N[C@@H](CCc1ccccc1)B(O)O)c1cnccn1
[out] 12

* * *

Assay: Intravenous/oral pharmacokinetics and tissue distribution in mice
Type: in vivo
Conditions: female, ICR, mouse, po, 100 mg/kg p.o., lung, read-out: Cmax in lung
Experimental Readout: Cmax (ng/g)
Report the figure in ng/g without appending any unit label.

[in] Query: Cmax; subject: O=C(N[C@@H](Cc1ccccn1)C(=O)N[C@@H](CCc1ccccc1)B(O)O)c1cnccn1
[out] 3370

* * *

Target: Tryptase b2 (Homo sapiens, UniProt P20231)
Construct: Reaction Biology Corporation (contract testing)
Sequence (P20231 31-275): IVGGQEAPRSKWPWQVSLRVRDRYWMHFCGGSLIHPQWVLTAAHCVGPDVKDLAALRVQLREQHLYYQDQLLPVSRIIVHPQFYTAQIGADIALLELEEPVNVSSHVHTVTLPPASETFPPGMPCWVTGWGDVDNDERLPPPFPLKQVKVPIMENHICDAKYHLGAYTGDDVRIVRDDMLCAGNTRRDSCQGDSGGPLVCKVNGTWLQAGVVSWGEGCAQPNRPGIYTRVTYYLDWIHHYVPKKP
Experiment: Protease panel: Tryptase b2
Type: biochemical
Conditions: supplement panel table, test and control compound
Counter-ions that a name gives are not always drawn.
Experimental Readout: IC50 (µM)
Report the figure in µM without appending any unit label.

[in] Query: IC50; subject: CCOC(=O)c1ccc(OC(=O)CCCCCN=C(N)N)cc1 [Gabexate mesylate (GM), Gabexate mesylate]
[out] 0.0873

* * *

Target: Kallikrein 7 (Homo sapiens)
Assay: Protease panel: Kallikrein 7
Assay type: biochemical
Settings: Table 6; 10-dose response, top 10 μM
Experimental Readout: IC50 (µM)
Report the figure in µM without appending any unit label.

[in] Query: IC50; subject: O=C(N[C@@H](Cc1ccccn1)C(=O)N[C@@H](CCc1ccccc1)B(O)O)c1cnccn1
[out] 9.31

* * *

Biological target: Cathepsin H (Homo sapiens, UniProt P09668)
Sequence (P09668 98-335, species assumed): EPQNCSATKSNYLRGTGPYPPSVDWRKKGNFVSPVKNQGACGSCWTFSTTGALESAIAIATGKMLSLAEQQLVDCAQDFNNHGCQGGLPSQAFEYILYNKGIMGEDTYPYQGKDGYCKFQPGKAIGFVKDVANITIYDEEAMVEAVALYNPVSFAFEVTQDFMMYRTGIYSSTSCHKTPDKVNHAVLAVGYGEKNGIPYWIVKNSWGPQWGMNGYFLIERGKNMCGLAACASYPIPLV
Test: Protease panel: Cathepsin H
Type: biochemical
Conditions: supplement panel table, test and control compound
Experimental Readout: IC50 (µM)
Report the figure in µM without appending any unit label.

[in] Query: IC50; subject: CC(C)C[C@H](NC(=O)[C@H]1O[C@@H]1C(=O)O)C(=O)NCCCCN=C(N)N [Compound E64]
[out] 0.198

* * *

Target: Chymase (Homo sapiens, UniProt P23946)
Sequence (P23946 22-247): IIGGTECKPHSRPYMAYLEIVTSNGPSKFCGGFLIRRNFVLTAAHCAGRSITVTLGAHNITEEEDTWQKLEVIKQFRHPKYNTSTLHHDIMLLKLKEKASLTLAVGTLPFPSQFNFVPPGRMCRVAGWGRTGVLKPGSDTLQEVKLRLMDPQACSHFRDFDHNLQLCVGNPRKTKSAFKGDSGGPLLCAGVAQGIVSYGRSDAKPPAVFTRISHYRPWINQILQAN
Test: Protease panel: Chymase
Assay type: biochemical
Details: Table 6; 10-dose response, top 10 μM
Experimental Readout: IC50 (µM)
Report the figure in µM without appending any unit label.

[in] Query: IC50; subject: O=C(N[C@@H](Cc1ccccn1)C(=O)N[C@@H](CCc1ccccc1)B(O)O)c1cnccn1 [Compound 58]
[out] 5.75

* * *

Target: ClpP1P2 (Mycolicibacterium smegmatis, UniProt A0R197+A0R198)
Sequence (A0R198 4-203): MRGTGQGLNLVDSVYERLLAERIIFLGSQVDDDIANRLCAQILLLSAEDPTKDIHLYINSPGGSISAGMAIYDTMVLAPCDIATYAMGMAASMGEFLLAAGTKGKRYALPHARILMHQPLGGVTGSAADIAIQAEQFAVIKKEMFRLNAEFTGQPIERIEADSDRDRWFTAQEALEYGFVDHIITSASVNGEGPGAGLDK
Sequence (A0R197 17-218): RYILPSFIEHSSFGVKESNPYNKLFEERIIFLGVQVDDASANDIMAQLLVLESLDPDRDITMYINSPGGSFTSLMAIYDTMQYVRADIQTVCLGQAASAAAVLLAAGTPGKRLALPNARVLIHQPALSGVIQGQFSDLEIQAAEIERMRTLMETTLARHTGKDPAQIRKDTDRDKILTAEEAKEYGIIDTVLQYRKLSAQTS
Assay: ClpP1P2 inhibition whole-cell RFP-SsrA reporter assay
Conditions: M. smegmatis ΔprcAB IC50 (μM) for ClpP1P2, whole-cell RFP-SsrA reporter, 3 h incubation
Some compounds, each annotated with its measured IC50.
Report the figure in µM without appending any unit label.

| Compound | IC50 [µM] |
| --- | --- |
| CC(C)C[C@H](NC(=O)[C@H](Cc1ccccc1)NC(=O)c1cccc2ncsc12)B(O)O [Compound 43] | 2.75 |
| CC(C)(C(=O)N[C@@H](Cc1ccccc1)C(=O)N[C@@H](CCC1CCCCC1)B(O)O)n1cccc1 [Compound 50] | 200 |
| O=C(N[C@@H](Cc1ccccc1)C(=O)N[C@@H](Cc1ccccc1)B(O)O)c1cnccn1 [Compound 31] | 7.5 |
| CC(C)C[C@H](NC(=O)[C@H](Cc1ccccc1)NC(=O)c1cnc(-c2ccccc2)nc1)B(O)O (mixture of isomers) [Compound 38] | 1.7 |

Proceeding to the next compound to report its IC50.
[in] Query: IC50; subject: O=C(N[C@@H](Cc1ccccc1)C(=O)N[C@@H](CCC1CCCCC1)B(O)O)c1cnccn1 [Compound 30]
[out] 25

* * *

Biological target: Caspase 4 (Homo sapiens)
Construct: Reaction Biology Corporation (contract testing)
Sequence (P49662 81-377, species assumed): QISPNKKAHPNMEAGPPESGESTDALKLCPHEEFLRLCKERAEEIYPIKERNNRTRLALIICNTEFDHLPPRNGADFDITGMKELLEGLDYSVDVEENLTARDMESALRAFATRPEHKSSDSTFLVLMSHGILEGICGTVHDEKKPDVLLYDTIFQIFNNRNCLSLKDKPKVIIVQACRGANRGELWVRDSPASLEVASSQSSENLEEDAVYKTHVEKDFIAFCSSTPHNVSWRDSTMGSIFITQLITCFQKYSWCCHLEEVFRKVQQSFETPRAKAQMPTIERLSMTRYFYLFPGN
Assay: Protease panel: Caspase 4
Type: biochemical
Settings: supplement panel table, test and control compound
Residues, ends and D or L forms follow the SMILES beside them.
Experimental Readout: IC50 (µM)
Report the figure in µM without appending any unit label.

[in] Query: IC50; subject: CC[C@H](C)[C@H](NC(C)=O)C(=O)N[C@@H](CCC(=O)O)C(=O)N[C@H](C(=O)N[C@H](C=O)CC(=O)O)[C@@H](C)O [IETD-CHO] (Ac-IETD-aldehyde)
[out] 2.73

* * *

Biological target: Caspase 7 (Homo sapiens, UniProt P55210)
Construct: Reaction Biology Corporation (contract testing)
Sequence (P55210 1-303): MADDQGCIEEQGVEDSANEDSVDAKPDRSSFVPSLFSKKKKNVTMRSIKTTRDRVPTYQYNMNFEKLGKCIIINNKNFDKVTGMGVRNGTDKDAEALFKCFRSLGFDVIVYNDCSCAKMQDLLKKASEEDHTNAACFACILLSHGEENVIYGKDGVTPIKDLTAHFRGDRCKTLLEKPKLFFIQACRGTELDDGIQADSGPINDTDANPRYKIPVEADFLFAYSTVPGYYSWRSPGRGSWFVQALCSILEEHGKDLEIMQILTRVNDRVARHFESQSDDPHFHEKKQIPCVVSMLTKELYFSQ
Test: Protease panel: Caspase 7
Assay type: biochemical
Conditions: supplement panel table, test and control compound
Experimental Readout: IC50 (µM)
Report the figure in µM without appending any unit label.

[in] Notebook: pull reported IC50 for Caspase 7 (Homo sapiens, UniProt P55210), entry CC(=O)N[C@@H](CC(=O)O)C(=O)N[C@@H](CCC(=O)O)C(=O)N[C@H](C(=O)N[C@H](C=O)CC(=O)O)C(C)C
[out] 0.0011

* * *

Molecular target: ClpP1P2 (Mycolicibacterium smegmatis, UniProt A0R197+A0R198)
Assay: ClpP1P2 inhibition whole-cell RFP-SsrA reporter assay
Conditions: M. smegmatis ΔprcAB IC50 (μM) for ClpP1P2, whole-cell RFP-SsrA reporter, 3 h incubation
Note to self: IC50 under 7 µM means 1 (yes), ties and anything higher get 0 (no).

| Molecule | Class Label |
| --- | --- |
| O=C(N[C@@H](Cc1ccccc1)C(=O)N[C@@H](CCC1CCCCC1)B(O)O)c1ccccc1 [Compound 48] | 0 (no) |
| O=C(N[C@@H](Cc1ccccn1)C(=O)N[C@@H](CCc1ccccc1)B(O)O)c1cnccn1 [Compound 58] | 1 (yes) |
| CC(C)(C(=O)N[C@@H](Cc1ccccc1)C(=O)N[C@@H](CCc1ccccc1)B(O)O)n1cccc1 [Compound 54] | 0 (no) |
| CC(C)C[C@H](NC(=O)[C@H](Cc1ccccc1)NC(=O)c1ncc(-c2ccccc2)o1)B(O)O (mixture of isomers) [Compound 42] | 1 (yes) |

[in] Please let me know if O=C(N[C@@H](Cc1ccccc1)C(=O)N[C@@H](CCc1ccccc1)B(O)O)c1ccccc1 [Compound 51] shows IC50 below 7 µM.
[out] 1 (yes)

[in] Please let me know if CC(C)C[C@H](NC(=O)[C@H](Cc1ccccc1)NC(=O)c1cc(-c2ccccc2)ncn1)B(O)O [Compound 39] shows IC50 below 7 µM.
[out] 0 (no)

[in] Please let me know if CC(C)C[C@H](NC(=O)[C@H](Cc1ccccc1)NC(=O)[C@H](Cc1ccccc1)NC(=O)c1cnccn1)B(O)O [Compound 44] shows IC50 below 7 µM.
[out] 0 (no)

[in] Please let me know if CC(C)C[C@H](NC(=O)[C@H](Cc1ccccc1)NC(=O)N1CCCCC1)B(O)O [Compound 45] shows IC50 below 7 µM.
[out] 0 (no)

[in] Please let me know if CC(C)C[C@H](NC(=O)[C@H](C)NC(=O)c1cnccn1)B(O)O [Compound 56] shows IC50 below 7 µM.
[out] 0 (no)

[in] Please let me know if O=C(N[C@@H](Cc1ccccc1)C(=O)N[C@@H](CC1CCCCC1)B(O)O)c1cnccn1 (mixture of isomers) [Compound 29] shows IC50 below 7 µM.
[out] 0 (no)

[in] Please let me know if CC(C)C[C@H](NC(=O)[C@H](Cc1ccccc1)NC(=O)c1cccnc1)B(O)O [Compound 36] shows IC50 below 7 µM.
[out] 1 (yes)

[in] Please let me know if O=C(N[C@@H](Cc1ccccc1)C(=O)N[C@@H](CCc1ccccc1)B(O)O)c1cnc(-c2ccccc2)nc1 [Compound 55] shows IC50 below 7 µM.
[out] 1 (yes)

[in] Please let me know if O=C(N[C@@H](Cc1ccccc1)C(=O)N[C@@H](CCc1ccccc1)B(O)O)c1cnccn1 [Compound 32] shows IC50 below 7 µM.
[out] 0 (no)

[in] Please let me know if CC(=O)N[C@@H](Cc1ccccc1)C(=O)N[C@@H](Cc1ccccc1)B(O)O [Compound 46] shows IC50 below 7 µM.
[out] 0 (no)

[in] Please let me know if CC(C)C[C@H](NC(=O)CCc1ccccc1)B(O)O [Compound 25] shows IC50 below 7 µM.
[out] 0 (no)

[in] Please let me know if CCCCC[C@H](NC(=O)[C@H](Cc1ccccc1)NC(=O)c1cnccn1)B(O)O [Compound 27] shows IC50 below 7 µM.
[out] 1 (yes)

[in] Please let me know if O=C(N[C@@H](Cc1ccccc1)C(=O)N[C@H](B(O)O)C1CCCCC1)c1cnccn1 [Compound 28] shows IC50 below 7 µM.
[out] 0 (no)

[in] Please let me know if O=C(N[C@@H](Cc1ccccc1)C(=O)N[C@@H](CCC1CCCCC1)B(O)O)c1ccccc1F [Compound 49] shows IC50 below 7 µM.
[out] 0 (no)

[in] Please let me know if O=C(N[C@@H](Cc1ccccc1)C(=O)N[C@@H](CCc1ccccc1)B(O)O)c1ccc(C(F)(F)F)cc1 [Compound 52] shows IC50 below 7 µM.
[out] 0 (no)

[in] Please let me know if CC(C)C[C@H](NC(=O)[C@H](Cc1ccccc1)NC(=O)c1ccccc1)B(O)O [Compound 35] shows IC50 below 7 µM.
[out] 1 (yes)

[in] Please let me know if O=C(N[C@@H](Cc1ccc(O)cc1)C(=O)N[C@@H](CCc1ccccc1)B(O)O)c1cnccn1 [Compound 57] shows IC50 below 7 µM.
[out] 0 (no)

[in] Please let me know if CC(C)C[C@H](NC(=O)[C@H](Cc1ccccc1)NC(=O)Cc1ccccc1)B(O)O (mixture of isomers) [Compound 34] shows IC50 below 7 µM.
[out] 0 (no)

[in] Please let me know if CC(C)C[C@H](NC(=O)[C@H](Cc1ccccc1)NC(=O)c1ccccn1)B(O)O [Compound 37] shows IC50 below 7 µM.
[out] 0 (no)

[in] Please let me know if O=C(N[C@@H](Cc1ccccc1)C(=O)N[C@@H](CCc1ccccc1)B(O)O)c1ccccc1F [Compound 53] shows IC50 below 7 µM.
[out] 1 (yes)
